- Protocol Notes: Components of the Cytosolic LPS Sensing Pathway: Gene Identification via Genome-wide siRNA Screen;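 note: robust z of the log signal after scaling to non-targeting control siRNA wells of the plate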
- Condition Context: RAW264.7 macrophages, IL-1a HTRF, actives lie on both sides, screened at 100 nM (by protocol), cells primed 5 h with Pam3CSK4 first
In all, about 53,000 sequences went through this assay and about 3,700 (7%) were called active. This is one part of a sample in which actives are shown more often than they occur.
Recorded z-score values for a group of sequences are listed next.
Give only the figure.

Sequence Content	z-score
GGAGGCAAAAAUGAUGCUATT against Slpi	1.97
GCCAAUAUUUGUUUUUGAGTT against Ranbp3l	0.0685
GGAAUACUCCAGUAUCUCCTT against 9130401M01Rik	-0.753
GCAAACGGACACUUGGAAUTT against Hmx1	-0.9

Task item: Please give the documented z-score of GGAUAACUCCUUAUUUAACTT against Teddm3
Reply: 1.25

Task item: Please give the documented z-score of CCAAGGUCUAAAAAAAUAGTT against Adamts19
Reply: -0.907

Task item: Please give the documented z-score of GCCUUGAUAAUUUUGUAAGTT against Gimap9
Reply: 0.533

Task item: Please give the documented z-score of GAAGAGACCUUCACAAAGUTT against Hnrnpll
Reply: -1.52

Task item: Please give the documented z-score of GUCCUCUUCUGGUUCUCAGTT against Vmn1r52
Reply: 0.246

Task item: Please give the documented z-score of GCACAGGACUGAUGCUAAGTT against Wdr91
Reply: 2.92

Task item: Please give the documented z-score of GCGACUGACACUAACAGAATT against Poc1a
Reply: -0.261

Task item: Please give the documented z-score of GUCUUAUACACGUGUGGACTT against Cklf
Reply: -0.198
